For each entry below, report its pKi value.
- system: T1, human glucagon receptor (human, UniProt P47871 26-477)
- T1 construct: whole, on cells; also called hGCGR; hGcgR
- T1 sequence (P47871 26-477): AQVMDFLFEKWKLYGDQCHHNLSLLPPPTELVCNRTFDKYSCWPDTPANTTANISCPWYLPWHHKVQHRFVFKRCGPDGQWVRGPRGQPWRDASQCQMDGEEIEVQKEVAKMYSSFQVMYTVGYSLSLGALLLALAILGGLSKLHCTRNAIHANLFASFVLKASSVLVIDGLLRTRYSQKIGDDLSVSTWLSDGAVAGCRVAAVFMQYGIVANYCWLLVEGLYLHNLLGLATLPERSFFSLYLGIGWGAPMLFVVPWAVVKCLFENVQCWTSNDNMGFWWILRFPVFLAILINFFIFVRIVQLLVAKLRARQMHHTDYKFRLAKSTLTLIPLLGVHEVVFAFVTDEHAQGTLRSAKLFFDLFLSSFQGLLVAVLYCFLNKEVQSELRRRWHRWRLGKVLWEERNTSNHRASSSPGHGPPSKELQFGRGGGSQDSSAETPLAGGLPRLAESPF
- assay_remarks: SPA competition vs [125I]-Gcg, hGcgR membranes
Answers are plain numbers, as −log10 of the molar value.

See these solved cases before continuing.
{"binder": "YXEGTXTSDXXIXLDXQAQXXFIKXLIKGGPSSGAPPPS (Aib2, αMeF(2F)6, 4Pal10, Aib11, αMeL13, Orn16, Aib20, Orn21, K24(Z1), αMeY25, K28(Z1), C-term NH2; Z1=AEEA-Trx-(γ-Glu)-(10-(4-carboxyphenoxy)decanoyl))", "pKi": 6.79}
{"binder": "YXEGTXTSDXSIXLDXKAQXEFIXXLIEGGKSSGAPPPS (Aib2, αMeF(2F)6, 4Pal10, αMeL13, Orn16, K17(Z1), Aib20, D-Glu24, αMeY25, K31(Z1), C-term NH2; Z1=AEEA-(γ-Glu)-(10-(4-carboxyphenoxy)decanoyl))", "pKi": 6.67}
{"binder": "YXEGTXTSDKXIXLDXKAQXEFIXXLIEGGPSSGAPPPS (Aib2, αMeF(2F)6, K10(Z1), Aib11, αMeL13, Orn16, K17(Z1), Aib20, D-Glu24, αMeY25, C-term NH2; Z1=AEEA2-(γ-Glu)-CO-(CH2)10-CH3)", "pKi": 6.88}
{"binder": "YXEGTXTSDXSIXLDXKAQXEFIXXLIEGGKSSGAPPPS (Aib2, αMeF(2F)6, 4Pal10, αMeL13, Orn16, K17(Z1), Aib20, D-Glu24, αMeY25, K31(Z1), C-term NH2; Z1=AEEA2-(γ-Glu)-CO-(CH2)10-CH3)", "pKi": 7.35}
{"binder": "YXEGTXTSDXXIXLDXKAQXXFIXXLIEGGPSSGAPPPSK (Aib2, αMeF(2F)6, 4Pal10, Aib11, αMeL13, Orn16, K17(Z1), Aib20, Orn21, D-Glu24, αMeY25, K40(Z1), C-term NH2; Z1=AEEA2-(γ-Glu)-CO-(CH2)10-CH3)", "pKi": 8.44}

Give me pKi for each of these binders, listed below.
1. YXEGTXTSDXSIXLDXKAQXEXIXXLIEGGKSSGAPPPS (Aib2, αMeF(2F)6, 4Pal10, αMeL13, Orn16, K17(Z1), Aib20, 3,5FPhe22, D-Glu24, αMeY25, K31(Z1), C-term NH2; Z1=AEEA2-(γ-Glu)-CO-(CH2)12-CO2H)
2. YXEGTXTSDXSIXLDXQAQXXFIKXLIKGGPSSGAPPPS (Aib2, αMeF(2F)6, hY10 (so in the source), αMeL13, Orn16, Aib20, Orn21, K24(Z1), αMeY25, K28(Z1), C-term NH2; Z1=AEEA2-(γ-Glu)-CO-(CH2)12-CO2H)
3. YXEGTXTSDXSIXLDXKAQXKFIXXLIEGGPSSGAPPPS (Aib2, αMeF(2F)6, 4Pal10, αMeL13, Orn16, K17(Z1), Aib20, K21(Z1), D-Glu24, αMeY25, C-term NH2; Z1=AEEA2-CO-(CH2)12-CO2H)
4. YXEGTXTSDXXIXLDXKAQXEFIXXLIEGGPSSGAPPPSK (Aib2, αMeF(2F)6, 4Pal10, Aib11, αMeL13, Orn16, K17(Z1), Aib20, D-Glu24, αMeY25, K40(Z1), C-term NH2; Z1=AEEA2-(γ-Glu)-CO-(CH2)10-CH3)

### Response
1: 5.37; 2: 7.03; 3: 6.20; 4: 8.20

Give me pKi for each of these binders, listed below.
1. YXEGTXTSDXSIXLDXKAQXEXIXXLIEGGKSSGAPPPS (Aib2, αMeF(2F)6, 4Pal10, αMeL13, Orn16, K17(Z1), Aib20, 1Nal22, D-Glu24, αMeY25, K31(Z1), C-term NH2; Z1=AEEA2-(γ-Glu)-CO-(CH2)12-CO2H)
2. YXEGTXTSDXXGXLDXQAQXXFIKXLIKGGPSSGAPPPS (Aib2, αMeF(2F)6, 4Pal10, Aib11, αMeL13, Orn16, Aib20, Orn21, K24(Z1), αMeY25, K28(Z1), C-term NH2; Z1=AEEA2-(γ-Glu)-CO-(CH2)12-CO2H, G at position 12)
3. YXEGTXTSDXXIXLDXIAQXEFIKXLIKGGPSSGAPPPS (Aib2, αMeF(2F)6, 4Pal10, αMeS11, αMeL13, Orn16, Aib20, K24(Z1), αMeY25, K28(Z1), C-term NH2; Z1=AEEA2-(γ-Glu)-CO-(CH2)12-CO2H)
4. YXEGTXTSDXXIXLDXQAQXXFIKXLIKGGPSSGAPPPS (Aib2, αMeF(2F)6, 4Pal10, Aib11, αMeL13, Orn16, Aib20, Orn21, K24(Z1), αMeY25, K28(Z1), C-term NH2; Z1=AEEA-Trx-(γ-Glu)-CO-(CH2)12-CO2H)

### Response
[5.38, 6.23, 6.48, 6.59]

Give me pKi for each of these binders, listed below.
1. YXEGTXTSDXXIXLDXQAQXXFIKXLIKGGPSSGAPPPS (Aib2, αMeF(2F)6, 4Pal10, Aib11, αMeL13, Orn16, Aib20, Orn21, K24(Z1), αMeY25, K28(Z1), C-term NH2; Z1=AEEA-Ahx-(γ-Glu)-(10-(4-carboxyphenoxy)decanoyl))
2. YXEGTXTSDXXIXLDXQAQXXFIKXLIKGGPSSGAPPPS (Aib2, αMeF(2F)6, 4Pal10, Aib11, αMeL13, Orn16, Aib20, Orn21, K24(Z1), αMeY25, K28(Z1), C-term NH2; Z1=PEG5-(γ-Glu)-(10-(4-carboxyphenoxy)decanoyl))
3. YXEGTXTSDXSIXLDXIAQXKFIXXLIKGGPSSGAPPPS (Aib2, αMeF(2F)6, 4Pal10, αMeL13, Orn16, Aib20, K21(Z1), D-Glu24, αMeY25, K28(Z1), C-term NH2; Z1=AEEA2-(γ-Glu)-CO-(CH2)12-CO2H)

### Response
7.14
6.84
7.27
